Biological target: benzodiazepine receptor
Experiment: benzodiazepine receptor test (displacement of 3H-diazepam from rat brain receptors)
Settings: 3H-diazepam, unit inferred
Label scheme, based on Ki: Low (below 60 nM), Medium (60 nM to below 200 nM), High (200 nM or more)

- MOLECULE: "COc1ccc(-c2cc3nc(N4CCCC4)c4ccccc4c3nn2)cc1"
  CLASS: "Low"
- MOLECULE: "COc1ccc(-c2cc3nc(N4CCC4)c4ccccc4c3nn2)cc1"
  CLASS: "Medium"
- MOLECULE: "c1ccc(-c2cc3nc(N4CCOCC4)c4ccccc4c3nn2)cc1"
  CLASS: "Medium"
- MOLECULE: "CCOc1nc2cc(-c3ccccc3)nnc2c2ccccc12"
  CLASS: "High"
- MOLECULE: "COCCN(CCOC)c1nc2cc(-c3ccc(OC)cc3)nnc2c2ccccc12"
  CLASS: "High"
- MOLECULE: "COc1ccc(-c2cc3nc(N(C)C)c4ccccc4c3nn2)cc1"
  CLASS: "Medium"
- MOLECULE: "c1ccc(-c2cc3nc(N4CCCC4)c4ccccc4c3nn2)cc1"
  CLASS: "Low"
- MOLECULE: "CN(C)c1nc2cc(-c3ccccc3)nnc2c2ccccc12"
  CLASS: "Low"
- MOLECULE: "COc1ccc(-c2cc3nc(N(C)CC(C)O)c4ccccc4c3nn2)cc1 (stereo not drawn)"
  CLASS: "High"
- MOLECULE: "CC(C)Oc1nc2cc(-c3ccccc3)nnc2c2ccccc12"
  CLASS: "High"
- MOLECULE: "CC(O)CN(C)c1nc2cc(-c3ccccc3)nnc2c2ccccc12 (stereo not drawn)"
  CLASS: "Medium"
- MOLECULE: "CCN(C)c1nc2cc(-c3ccccc3)nnc2c2ccccc12"
  CLASS: "Medium"
